Where do these numbers come from? They come from ChEMBL document CHEMBL5724914.

Settings: human gut metagenome, 24 h, 2 µM; note: call rule not given here
OUTCOME_MEASURE: Bacterial Biotransformation

Sample answers from the record:
compound="CCOC(=O)[C@H](CCc1ccccc1)N[C@H]1CCc2ccccc2N(CC(=O)O)C1=O [BENAZEPRIL]" result_value="Compound metabolized"
compound=CCCCC(=O)N(Cc1ccc(-c2ccccc2-c2nnn[nH]2)cc1)[C@H](C(=O)O)C(C)C result_value="Compound metabolized"
compound="CC(C)OC(=O)C(C)(C)Oc1ccc(C(=O)c2ccc(Cl)cc2)cc1 [FENOFIBRATE]" result_value="Compound NOT metabolized"
compound="COc1cc2nc(N(C)CCCNC(=O)C3CCCO3)nc(N)c2cc1OC (stereo unspecified) [ALFUZOSIN]" result_value="Compound NOT metabolized"
compound="Cc1ccccc1N1C(=O)c2cc(S(N)(=O)=O)c(Cl)cc2NC1C (stereo unspecified) [METOLAZONE]" result_value="Compound NOT metabolized"

Inquiry: Please look up its Bacterial Biotransformation: COc1ccc2[nH]c([S+]([O-])Cc3ncc(C)c(OC)c3C)nc2c1 (stereo unspecified) [OMEPRAZOLE]
Reply text: Compound metabolized

Inquiry: Now this one: CCCC1O[C@@H]2C[C@H]3[C@@H]4CCC5=CC(=O)C=C[C@]5(C)[C@H]4[C@@H](O)C[C@]3(C)[C@]2(C(=O)CO)O1 (stereo partly specified) [BUDESONIDE]
Reply text: Compound NOT metabolized

Inquiry: Now this one: COc1ccc2[nH]c([S+]([O-])Cc3ncc(C)c(OC)c3C)nc2n1 (stereo unspecified) [TENATOPRAZOLE]
Reply text: Compound metabolized

Inquiry: Now this one: OC(Cn1cncn1)(Cn1cncn1)c1ccc(F)cc1F [FLUCONAZOLE]
Reply text: Compound NOT metabolized

Inquiry: Now this one: COc1ccc(CCN(C)CCCC(C#N)(c2ccc(OC)c(OC)c2)C(C)C)cc1OC (stereo unspecified)
Reply text: Compound NOT metabolized

Inquiry: Now this one: CCCCc1nc(Cl)c(CO)n1Cc1ccc(-c2ccccc2-c2nn[nH]n2)cc1 [LOSARTAN]
Reply text: Compound metabolized

----------
Settings: human gut metagenome, 24 h, 2 µM
OUTCOME_MEASURE: Bacterial Biotransformation

Sample answers from the record:
molecule="c1ccc([C@H]2CN3CCSC3=N2)cc1 [LEVAMISOLE]" outcome_measure="Bacterial Biotransformation" result_value="Compound metabolized"
molecule="CCOC(=O)[C@H](CCc1ccccc1)N[C@H]1CCc2ccccc2N(CC(=O)O)C1=O [BENAZEPRIL]" outcome_measure="Bacterial Biotransformation" result_value="Compound metabolized"
molecule="Cc1ccccc1N1C(=O)c2cc(S(N)(=O)=O)c(Cl)cc2NC1C (centres undefined) [METOLAZONE]" outcome_measure="Bacterial Biotransformation" result_value="Compound NOT metabolized"
molecule="OC(Cn1cncn1)(Cn1cncn1)c1ccc(F)cc1F [FLUCONAZOLE]" outcome_measure="Bacterial Biotransformation" result_value="Compound NOT metabolized"
molecule="CCCCCOC(=O)Nc1nc(=O)n([C@@H]2O[C@H](C)[C@@H](O)[C@H]2O)cc1F [CAPECITABINE]" outcome_measure="Bacterial Biotransformation" result_value="Compound metabolized"

Inquiry: Please look up its Bacterial Biotransformation: CC(C)NCC(O)c1ccc(NS(C)(=O)=O)cc1 (centres undefined) [SOTALOL]
Reply text: Compound NOT metabolized

Inquiry: Now this one: Cc1nc(-c2ccc(OCC(C)C)c(C#N)c2)sc1C(=O)O [FEBUXOSTAT]
Reply text: Compound metabolized

Inquiry: Now this one: C=CCc1ccccc1OCC(O)CNC(C)C (centres undefined) [ALPRENOLOL]
Reply text: Compound NOT metabolized

Inquiry: Now this one: CCCc1nc2c(C)cc(-c3nc4ccccc4n3C)cc2n1Cc1ccc(-c2ccccc2C(=O)O)cc1
Reply text: Compound NOT metabolized

Inquiry: Now this one: O=C(O)COCCN1CCN(C(c2ccccc2)c2ccc(Cl)cc2)CC1 (centres undefined) [CETIRIZINE]
Reply text: Compound metabolized
